Here's a batch of compounds along with measured pIC50 for UniProt:Q13464.
pIC50: −log10 of the molar value.
assay-readout: pIC50

// below: answered compounds
compound: CCS(=O)(=O)NC[C@@H](NC(=O)c1ccc(-c2cn[nH]c2)c(OC)c1)c1ccccc1 [Example 262]
numeric-result: 7.26
--
compound: COc1cc(C(=O)NCc2ccc(F)c(F)c2)ccc1-c1cn[nH]c1 [Example 79]
numeric-result: 7.64
--
compound: COc1ccc(F)c(CNC(=O)c2ccc(-c3cn[nH]c3)c(C)c2)c1 [Example 148]
numeric-result: 6.76
--
compound: COc1cccc(CNC(=O)c2ccc(-c3cn[nH]c3)cc2OC)c1 [Example 54]
numeric-result: 7.67
--
compound: COc1cccc([C@@H](C)NC(=O)c2ccc(-c3c[nH]nc3C)cc2OC)c1 [Example 305]
numeric-result: 8.67

(P) Cc1cc(C(=O)N[C@H](CC(=O)NCC(C)(C)O)c2ccccc2)ccc1-c1cn[nH]c1 [Example 253]
(Q) COc1cc(C(=O)NC(C)Cc2ccc(F)cc2)ccc1-c1cn[nH]c1 (centres unmarked) [Example 111]
Recorded pIC50 values differ for P and Q ; which one is higher? Return value: the label identifying the chosen record. Q

====

test-system: ROCK1 (Homo sapiens (Human), UniProt Q13464)
Sequence (Q13464 whole entry, species assumed): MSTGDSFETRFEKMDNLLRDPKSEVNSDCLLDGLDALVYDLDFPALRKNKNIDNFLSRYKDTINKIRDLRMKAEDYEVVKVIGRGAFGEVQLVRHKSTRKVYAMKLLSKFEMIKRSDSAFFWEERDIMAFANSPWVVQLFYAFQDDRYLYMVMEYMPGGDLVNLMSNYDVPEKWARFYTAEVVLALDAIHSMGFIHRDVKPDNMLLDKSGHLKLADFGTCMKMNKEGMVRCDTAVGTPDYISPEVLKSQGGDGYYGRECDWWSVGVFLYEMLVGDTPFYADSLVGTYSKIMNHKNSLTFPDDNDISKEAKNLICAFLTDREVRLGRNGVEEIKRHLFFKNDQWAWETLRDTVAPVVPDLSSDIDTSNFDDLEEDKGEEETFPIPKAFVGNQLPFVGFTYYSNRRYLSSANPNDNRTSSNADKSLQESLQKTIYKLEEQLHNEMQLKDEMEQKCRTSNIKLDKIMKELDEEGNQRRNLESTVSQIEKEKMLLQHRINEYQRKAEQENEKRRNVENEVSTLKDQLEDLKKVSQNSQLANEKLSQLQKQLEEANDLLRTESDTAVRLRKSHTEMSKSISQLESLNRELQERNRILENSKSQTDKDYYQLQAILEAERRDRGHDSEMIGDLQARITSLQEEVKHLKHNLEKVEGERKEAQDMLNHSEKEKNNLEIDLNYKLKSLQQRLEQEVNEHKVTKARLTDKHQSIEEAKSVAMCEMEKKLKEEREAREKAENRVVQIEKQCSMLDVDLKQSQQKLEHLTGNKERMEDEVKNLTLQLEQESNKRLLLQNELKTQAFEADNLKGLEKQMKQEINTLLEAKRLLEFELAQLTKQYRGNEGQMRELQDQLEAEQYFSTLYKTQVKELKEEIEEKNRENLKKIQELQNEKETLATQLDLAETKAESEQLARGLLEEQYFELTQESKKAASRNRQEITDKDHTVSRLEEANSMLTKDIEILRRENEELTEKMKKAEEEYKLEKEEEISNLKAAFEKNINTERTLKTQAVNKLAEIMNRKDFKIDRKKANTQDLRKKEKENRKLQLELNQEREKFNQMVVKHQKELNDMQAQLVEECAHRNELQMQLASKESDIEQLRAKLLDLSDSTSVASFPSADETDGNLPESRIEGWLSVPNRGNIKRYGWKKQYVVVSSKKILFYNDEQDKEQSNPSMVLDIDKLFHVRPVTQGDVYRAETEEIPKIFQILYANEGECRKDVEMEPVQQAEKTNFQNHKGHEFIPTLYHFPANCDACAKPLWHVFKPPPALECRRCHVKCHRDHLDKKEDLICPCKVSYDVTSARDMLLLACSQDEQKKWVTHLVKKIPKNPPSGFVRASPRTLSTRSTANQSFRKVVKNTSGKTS
pIC50: −log10 of the molar value.
assay-readout: pIC50

// below: answered molecules
molecule: COc1cc(C(=O)NCc2cccc(S(N)(=O)=O)c2)ccc1-c1cn[nH]c1 [Example 231]
pIC50: 7.82

molecule: COc1cc(C(=O)NC(CO)c2ccccc2F)ccc1-c1cn[nH]c1 (centres unmarked) [Example 166]
pIC50: 8.14

molecule: CC(NC(=O)c1ccc(-c2cn[nH]c2)c(C(F)F)c1)c1ccccc1F (racemic) [Example 299]
pIC50: 6.96

(P) COc1cc(C(=O)NC(CCO)c2ccccc2)ccc1-c1cn[nH]c1 (centres unmarked) [Example 145]
(Q) COc1cc(C(=O)NC(CCO)c2ccccc2)ccc1-c1cn[nH]c1 (centres unmarked) [Example 90]
(R) COc1ccc(F)c(C(C)NC(=O)c2ccc(-c3cn[nH]c3)cc2OC)c1 (centres unmarked) [Example 229]
Rank the 3 molecules: largest pIC50 first, smallest last. Please write the labels in the order that was asked for. Q, R, P
(Q: 7.91, R: 6.74, P: 6.52)

====

test-system: ROCK1 (Homo sapiens (Human));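 further: Read-out is separation of phosphorylated from unphosphorylated peptide, with kinase activity inhibition computed at every concentration of a dose-response series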
assay-readout: IC50 (nM)

compound: COCCOc1cc(-c2cn[nH]c2)ccc1C(=O)N[C@H](C)c1cccc(OC)c1
IC50 / nM: 16.8

(P) COc1cc(C(=O)NCc2ccc3[nH]c(=O)[nH]c3c2)ccc1-c1cn[nH]c1
(Q) CCN1CCC[C@H]1CNC(=O)c1cccc(CNC(=O)c2ccc(-c3cn[nH]c3)c(OC)c2)c1
(R) COc1cc(C(=O)NC(CO)c2ccccc2F)ccc1-c1cn[nH]c1 (centres unmarked) [Example 167]
(S) COc1cc(C(=O)NC(CN)Cc2ccccc2)ccc1-c1cn[nH]c1 (centres unmarked)
(T) COc1cc(-c2cn[nH]c2)ccc1C(=O)NC(CO)c1ccccc1F (centres unmarked)
Put these in order: smallest IC50 first, largest last. Please write the labels in the order that was asked for. S, Q, R, T, P
(S: 1.04 nM, Q: 1.54 nM, R: 56.5 nM, T: 345 nM, P: 3770 nM)
